settings: in toluene, 283.15 K
Give measured solubility (mole fraction) for each item. Keep answers brief.
Give your answer as a number; write no unit.

Using the record for c1ccc2c(c1)oc1ccccc12 , report its solubility (mole fraction). 0.158

Next up: O=C1c2ccccc2-c2ccccc21 0.12

====

Give solubility (mole fraction) for every item shown.
details: in diisopropyl ether, 303.15 K
Kindly provide the number alone.

Look up solubility (mole fraction): O=C1c2ccccc2-c2ccccc21 0.0642

And what about the compound c1ccc2c(c1)oc1ccccc12 ? 0.183

====

conditions: in n-butanol, 293.15 K
I'd be grateful if you could share measured solubility (mole fraction) for these entries.

Please look up its solubility (mole fraction): O=C1c2ccccc2-c2ccccc21 0.0402

Would you mind doing c1ccc2c(c1)oc1ccccc12 as well? 0.0421

====

Please respond with reported solubility (mole fraction) for every item in the list.
conditions: in n-butanol, 303.15 K
Hey, just send me the number, nothing else.

Given the entry O=C1c2ccccc2-c2ccccc21 , report its measured solubility (mole fraction). 0.0685

And c1ccc2c(c1)oc1ccccc12 ? 0.0671

====

Hi there, I'd appreciate the recorded solubility (mole fraction) for every entry that follows.
settings: in tetrachloromethane, 283.15 K
Reply: number alone, nothing else.

Record request: solubility (mole fraction) value, item c1ccc2c(c1)oc1ccccc12 0.134

Consider next the molecule O=C1c2ccccc2-c2ccccc21 in the same way. 0.114

====

conditions: in diisopropyl ether, 293.15 K
observable: solubility (mole fraction)

Given c1ccc2c(c1)oc1ccccc12 , state its recorded solubility (mole fraction). 0.13

Then O=C1c2ccccc2-c2ccccc21 ? 0.0426

====

conditions: in diisopropyl ether, 323.15 K
observable: solubility (mole fraction)
Give the figure only, with no unit attached.

Quick one: solubility (mole fraction) for O=C1c2ccccc2-c2ccccc21 ? 0.18

Input c1ccc2c(c1)oc1ccccc12 0.412

====

conditions: in toluene, 333.15 K
Provide the reported solubility (mole fraction) of each item.
Kindly provide the number alone.

Dear colleague, I am looking for the recorded solubility (mole fraction) of the following compound: c1ccc2c(c1)oc1ccccc12 0.624

Same read-out for O=C1c2ccccc2-c2ccccc21 ? 0.55

====

settings: in diisopropyl ether, 308.15 K
observable: solubility (mole fraction)
Form: value (number only, do not type unit).

Look up solubility (mole fraction): O=C1c2ccccc2-c2ccccc21 0.0815

Follow-up entry: c1ccc2c(c1)oc1ccccc12 0.237

====

Exercise: state measured solubility (mole fraction) for each of the compounds provided.
conditions: in diisopropyl ether, 298.15 K
Answer as a number with no unit attached.

Could you share which solubility (mole fraction) value was measured for O=C1c2ccccc2-c2ccccc21 ? 0.0541

Thanks! And c1ccc2c(c1)oc1ccccc12 ? 0.155

====

Please go through the items and note down their solubility (mole fraction).
details: in tetrachloromethane, 303.15 K
Number only, no unit.

What value of measured solubility (mole fraction) is listed for O=C1c2ccccc2-c2ccccc21 ? 0.241

Next up: c1ccc2c(c1)oc1ccccc12 0.264

====

Provide the reported solubility (mole fraction) of each item.
details: in n-butanol, 283.15 K

Report solubility (mole fraction) for c1ccc2c(c1)oc1ccccc12 please. 0.0281

Quick one: O=C1c2ccccc2-c2ccccc21 0.0267

====

details: in tetrachloromethane, 293.15 K
observable: solubility (mole fraction)
No unit in the answer, please; the number alone is enough.

Returns the measured solubility (mole fraction) for the input molecule. Input: c1ccc2c(c1)oc1ccccc12 0.191

Try O=C1c2ccccc2-c2ccccc21 next. 0.158
